System: DERL-7 (IL-2 2.5 ng/mL);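 also: normalised to DMSO-only wells as negative and benzethonium chloride as positive control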
Assay: percent inhibition of viability; higher = more inhibition
Details: 72 h; 100 nM
MEASURED METRIC: percent inhibition of viability (%)
Dear colleague, please return just the value in %, with no unit written.

Cn1nnc2c(C(N)=O)ncn2c1=O [Temozolomide] (max concentration tested 100000 nM) | 2.52
CC(C)(C)Cn1c(N)nc2ccc(-c3[nH]c(C(C)(C)C)nc3-c3ccc(F)cc3)nc21 [Ralimetinib] (max concentration tested 10000 nM) | 3.67
Nc1cccc2c1CN(C1CCC(=O)NC1=O)C2=O (stereo not drawn) [Lenalidomide] (max concentration tested 100000 nM) | -7.59
CC[C@@]1(O)C(=O)OCc2c1cc1n(c2=O)Cc2cc3c(CN(C)C)c(O)ccc3nc2-1 [Topotecan] (max concentration tested 10000 nM) | 69.9

CNC(=O)c1cc(Oc2ccc(NC(=O)Nc3ccc(Cl)c(C(F)(F)F)c3)cc2)ccn1 [Sorafenib] (max concentration tested 1000 nM) yielded percent inhibition of viability of 1.1

CCN(c1cc(-c2ccc(CN3CCOCC3)cc2)cc(C(=O)NCc2c(C)cc(C)[nH]c2=O)c1C)C1CCOCC1 [E7438] (max concentration tested 10000 nM) yielded percent inhibition of viability of 9.96

COc1ccc(-c2nc(N3CCOCC3)c3sc(CN(C)c4ncc(C(=O)NO)cn4)cc3n2)cn1 [CUDC-907] (max concentration tested 10000 nM) yielded percent inhibition of viability of 100

O=C(O)c1ccc2c(c1)nc(Nc1cccc(Cl)c1)c1ccncc12 [Silmitasertib] (max concentration tested 10000 nM) yielded percent inhibition of viability of -2.32

---

Tested on: NK-YS (IL-2 2.5 ng/mL)
Test: relative IC50 (inflection point of fitted viability curve, relative to fitted max inhibition); higher = less sensitive
Settings: 72 h
Binning of relative IC50 into classes: low interval = under 0.1 µM, middle interval = from 0.1 µM up to 1 µM, high interval = 1 µM and over

Cc1ccc(C(=O)N(CCCN)[C@@H](c2oc3cc(Cl)ccc3c(=O)c2Cc2ccccc2)C(C)C)cc1 | low interval

Quick check: band for CNC(=O)c1nn(C)c2c1C(C)(C)Cc1cnc(Nc3ccc(N4CCN(C)CC4)cc3)nc1-2
high interval

Quick check: band for Nc1ccn([C@@H]2O[C@H](CO)[C@@H](O)C2(F)F)c(=O)n1
low interval

Quick check: band for CC(=O)[C@]1(O)Cc2c(O)c3c(c(O)c2[C@@H](O[C@H]2C[C@H](N)[C@H](O)[C@H](C)O2)C1)C(=O)c1ccccc1C3=O
low interval

Quick check: band for Cc1cc(Nc2ncc(Cl)c(Nc3ccccc3S(=O)(=O)C(C)C)n2)c(OC(C)C)cc1C1CCNCC1
high interval

Quick check: band for CNNCc1ccc(C(=O)NC(C)C)cc1
high interval

Quick check: band for O=[N+]([O-])c1ccc2c(c1)S(=O)(=O)C=C2
high interval

Quick check: band for COc1cc2c(cc1-c1c(C)noc1C)ncc1[nH]c(=O)n([C@H](C)c3ccccn3)c12
middle interval

Quick check: band for Cc1cc(OCc2nnc(SC3CCCC3)n2-c2cccnc2)ccc1-c1ccc(S(C)(=O)=O)cc1
middle interval

Quick check: band for Cc1ncc(-c2ccnc(Nc3ccc(S(C)(=O)=O)cc3)n2)n1C(C)C
middle interval

Quick check: band for O=C(NC1CCNCC1)c1n[nH]cc1NC(=O)c1c(Cl)cccc1Cl
middle interval

Quick check: band for COc1ccc(-c2ccc3ncc4c(c3c2)n(-c2ccc(N3CCNCC3)c(C(F)(F)F)c2)c(=O)n4C)cn1
low interval
